Where do the numbers come from? From patent US20030100769A1.

// pKi lookup, one value per entry
target: α4β2 subtype of nicotinic acetylcholine receptors (Rattus norvegicus, UniProt P09483+P12390); construct: examined using rat brain membrane obtained from whole homogenized brain; from tissue; host or cells: rat whole brain membranes (Fischer-344 male rats); test: Binding assay at α4β2 subtype of nicotinic acetylcholine receptors ([3H]-cytisine, rat brain membrane); conditions: rat brain membrane, [3H]-cytisine 2 nM; read-out: Affinities for receptors Ki α4β2
Sequence (P09483 31-630): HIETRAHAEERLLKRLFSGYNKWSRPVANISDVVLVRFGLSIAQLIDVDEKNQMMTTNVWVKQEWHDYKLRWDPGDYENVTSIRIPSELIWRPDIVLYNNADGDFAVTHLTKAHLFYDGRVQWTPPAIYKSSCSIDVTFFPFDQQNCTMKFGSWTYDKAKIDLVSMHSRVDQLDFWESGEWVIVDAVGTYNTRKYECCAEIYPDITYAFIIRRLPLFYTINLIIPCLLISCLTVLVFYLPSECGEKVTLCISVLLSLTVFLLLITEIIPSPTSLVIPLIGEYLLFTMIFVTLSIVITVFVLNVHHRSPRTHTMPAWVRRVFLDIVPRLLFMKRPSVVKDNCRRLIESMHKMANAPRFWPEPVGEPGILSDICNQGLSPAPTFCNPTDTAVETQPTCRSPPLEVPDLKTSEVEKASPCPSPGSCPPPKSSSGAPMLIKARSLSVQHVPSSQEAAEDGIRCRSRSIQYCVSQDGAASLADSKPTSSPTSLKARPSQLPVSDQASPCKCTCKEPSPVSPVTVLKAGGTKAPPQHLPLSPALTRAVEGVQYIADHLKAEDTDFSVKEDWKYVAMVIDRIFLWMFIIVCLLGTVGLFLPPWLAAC
Sequence (P12390 25-500): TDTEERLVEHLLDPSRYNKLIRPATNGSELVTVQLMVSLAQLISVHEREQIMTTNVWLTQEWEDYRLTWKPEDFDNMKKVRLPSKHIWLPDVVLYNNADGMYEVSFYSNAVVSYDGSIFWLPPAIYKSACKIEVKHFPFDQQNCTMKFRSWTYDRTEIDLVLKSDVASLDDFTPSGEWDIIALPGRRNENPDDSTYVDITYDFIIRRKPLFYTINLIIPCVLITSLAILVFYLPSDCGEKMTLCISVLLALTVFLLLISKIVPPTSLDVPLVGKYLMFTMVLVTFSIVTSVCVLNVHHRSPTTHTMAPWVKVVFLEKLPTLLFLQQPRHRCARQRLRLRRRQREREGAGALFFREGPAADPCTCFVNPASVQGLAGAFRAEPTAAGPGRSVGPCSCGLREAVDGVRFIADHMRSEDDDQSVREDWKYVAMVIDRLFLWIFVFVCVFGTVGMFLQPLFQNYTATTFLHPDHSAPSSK
The value called pKi is obtained by taking minus log10 of the concentration in mol/L.

# COMPOUND, OBSERVED MEASUREMENT
records = [
    ("CC1=NCC(c2cccnc2)N1 (stereo not shown)", 6.24),
    ("c1ccc2ncc(C3=NCCCN3)cc2c1", 6.47),
    ("Clc1cc(CC2=NCCN2)cnc1Cl", 6.68),
]

// fetch pKi given entry C1CN=C(CC2CCOC2)NC1 (stereo not shown)
6.02

====

Target: α4β2 subtype of nicotinic acetylcholine receptors (Rattus norvegicus, UniProt P09483+P12390)
Construct: examined using rat brain membrane obtained from whole homogenized brain; from tissue; host or cells: rat whole brain membranes (Fischer-344 male rats)
Assay: Binding assay at α4β2 subtype of nicotinic acetylcholine receptors ([3H]-cytisine, rat brain membrane)
Method: The methods for evaluating the binding capabilities of the compounds at nicotinic acetylcholine receptors are different by subtypes of receptors. […] Suspensions of membrane pellets containing 400-600 μg of protein were added to test tubes containing test compounds and [^3H]-cytisine (2 nM) in a final volume of 200 μl and incubated for 75 minutes in ice-cooled bath. […] The filters were counted in 3 ml of clearsol I (Nacalai Tesque Inc.). […]
READOUT NAME: pKi
The value called pKi is obtained by taking minus log10 of the concentration in mol/L.

# COMPOUND, pKi
records = [
    ("CN1CCN=C1Cc1cnc(Cl)c(Cl)c1 [Compound 53]", 8.00),
    ("Clc1cc(CN2C=NCCC2)cnc1Cl [Compound 52]", 8.92),
    ("Clc1ncc(C2=NCCCN2)s1 [Compound 22]", 6.37),
]

// fetch pKi given entry Brc1cncc(CC2=NCCCN2)c1 [Compound 16]
6.41

====

molecular target: α1β1γδ subtype of nicotinic acetylcholine receptors (Rattus norvegicus, UniProt P18916+P25108+P25109+P25110); assay: biochemical
Sequence (P25109 24-501): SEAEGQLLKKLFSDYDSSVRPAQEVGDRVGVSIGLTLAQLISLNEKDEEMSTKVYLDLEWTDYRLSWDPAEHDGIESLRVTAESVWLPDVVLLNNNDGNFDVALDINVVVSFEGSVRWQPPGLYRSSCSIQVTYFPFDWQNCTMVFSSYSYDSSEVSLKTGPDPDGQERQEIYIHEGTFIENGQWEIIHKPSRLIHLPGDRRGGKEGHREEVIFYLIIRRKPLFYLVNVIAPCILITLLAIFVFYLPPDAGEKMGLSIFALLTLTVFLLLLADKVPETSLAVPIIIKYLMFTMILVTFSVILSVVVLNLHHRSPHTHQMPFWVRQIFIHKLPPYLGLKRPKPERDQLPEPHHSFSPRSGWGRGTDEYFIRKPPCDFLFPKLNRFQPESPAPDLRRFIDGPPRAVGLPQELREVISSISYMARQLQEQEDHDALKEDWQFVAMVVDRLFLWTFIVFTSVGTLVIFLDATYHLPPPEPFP
Sequence (P25110 22-517): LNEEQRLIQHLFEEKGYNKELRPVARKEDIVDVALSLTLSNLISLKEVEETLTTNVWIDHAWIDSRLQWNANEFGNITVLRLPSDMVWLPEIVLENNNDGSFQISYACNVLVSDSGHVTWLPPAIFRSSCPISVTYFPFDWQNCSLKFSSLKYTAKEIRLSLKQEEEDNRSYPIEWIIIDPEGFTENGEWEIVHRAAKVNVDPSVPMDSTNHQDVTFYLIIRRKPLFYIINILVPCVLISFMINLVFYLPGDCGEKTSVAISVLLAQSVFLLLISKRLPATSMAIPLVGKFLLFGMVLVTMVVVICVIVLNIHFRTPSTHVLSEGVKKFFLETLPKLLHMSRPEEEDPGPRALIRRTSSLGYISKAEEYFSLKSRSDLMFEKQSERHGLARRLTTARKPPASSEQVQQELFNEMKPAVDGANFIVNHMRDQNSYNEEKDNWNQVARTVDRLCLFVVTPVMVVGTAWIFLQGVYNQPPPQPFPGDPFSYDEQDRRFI
Sequence (P25108 21-457): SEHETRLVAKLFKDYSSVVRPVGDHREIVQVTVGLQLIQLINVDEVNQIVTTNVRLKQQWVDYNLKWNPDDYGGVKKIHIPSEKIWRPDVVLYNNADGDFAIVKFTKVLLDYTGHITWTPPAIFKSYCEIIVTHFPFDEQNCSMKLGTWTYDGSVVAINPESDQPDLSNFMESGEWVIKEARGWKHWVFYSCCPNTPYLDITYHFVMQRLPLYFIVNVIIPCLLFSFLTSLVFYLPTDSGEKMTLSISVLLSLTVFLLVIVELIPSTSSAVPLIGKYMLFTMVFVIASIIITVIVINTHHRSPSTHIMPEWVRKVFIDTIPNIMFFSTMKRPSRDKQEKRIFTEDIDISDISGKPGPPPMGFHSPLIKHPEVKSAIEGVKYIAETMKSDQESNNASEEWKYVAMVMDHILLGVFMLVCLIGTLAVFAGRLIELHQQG
READOUT NAME: pKi
The value called pKi is obtained by taking minus log10 of the concentration in mol/L.

Check out these entries, answers already filled in.
# COMPOUND, pKi
records = [
    ("CC1=NCCN1CCc1ccc(Cl)nc1", 3.19),
    ("c1ncc(CC2=NCCCN2)cn1", 3.08),
    ("Clc1cc(CN2C=NCCC2)cnc1Cl", 4.64),
]

// fetch pKi given entry `Fc1ccc(CC2=NCCCN2)cn1`
3.59

====

Target: α1β1γδ subtype of nicotinic acetylcholine receptors (Rattus norvegicus, UniProt P18916+P25108+P25109+P25110)
Test: biochemical
Procedure: The methods for evaluating the binding capabilities of the compounds at nicotinic acetylcholine receptors are different by subtypes of receptors. […] The affinity of the compounds of the present invention to α1β1γδ subtype of nicotinic acetylcholine receptors was measured by the following method, which was modified method described by Garcha H. S., Thomas P., Spivak C. […] Receptors binding experiments were performed as follow. […] The filters were counted in 3 ml of clearsol I (Nacalai Tesque Inc.). […]
READOUT NAME: pKi
The value called pKi is obtained by taking minus log10 of the concentration in mol/L.

# COMPOUND, READOUT NAME, OBSERVED MEASUREMENT
measured = [
    ("Clc1cc(CC2=NCCN2)cnc1Cl", "pKi", 3.11),
    ("Clc1ncc(CC2=NCCCN2)s1", "pKi", 4.64),
    ("Clc1ccc(CN2C=NCCC2)cn1", "pKi", 4.35),
    ("CN1CCN=C1Cc1cnc(Cl)c(Cl)c1", "pKi", 4.08),
    ("Cc1ccc(CN2C=NCCC2)cn1", "pKi", 4.07),
]

// fetch pKi given entry CC1CCNC(Cc2ccc(Cl)nc2)=N1 (stereo not shown)
2.76

// fetch pKi given entry `Cc1cncc(CC2=NCCCN2)c1`
3.64
